target: Arginase-2, mitochondrial (Homo sapiens); assay: in vitro enzyme assay to detect the production of urea directly proportional to the activity of Arginase II; type: functional; design: scale not given: in the data most compounds retested in dose-response had high values; settings: 33.3 µM
measured_parameter: Percent Effect (%)
Report as a plain number; the unit % is understood.

**Query** Please look up its Percent Effect: CCn1ccnc1CN1CCC(CCC(=O)Nc2ccccc2Cl)CC1
**Result** 12.2

**Query** Please look up its Percent Effect: COc1ccc(C2CCCN2C(=O)c2csc(NC(C)=O)n2)cc1 (stereo not drawn)
**Result** 2.85

**Query** Please look up its Percent Effect: CC(=O)N1CCC2(CCN(C(=O)c3ccc(Cl)c(C(F)(F)F)c3)CC2)C1
**Result** -0.405

----------
species on record: Homo sapiens; experiment: To identify inhibition of the IFN signalling (Jak-Stat) pathway via expression of an eGFP reporter gene under the control of an IFN-stimulated response element (ISRE) containing MxA promoter.; format: functional; parameters: scale not given: direction of the effect not stated beside the values; conditions: 30 µM
For each record, write down the corresponding Percent Effect.
Report as a plain number; the unit % is understood.

**Query** Please look up its Percent Effect: COc1cccc(COCC(=O)N2CCN(CC(C)(C)O)CC2)c1
**Result** 21

**Query** Please look up its Percent Effect: c1ccc(OCCN2CCCC(c3noc(C4CC4)n3)C2)cc1 (stereo not drawn)
**Result** 6.37

**Query** Please look up its Percent Effect: CCc1nc(C2CCCN2C(=O)CCn2cncn2)no1 (stereo not drawn)
**Result** 3.97

**Query** Please look up its Percent Effect: COC1COC2(CCN(Cc3ccccc3Cl)CC2)C1 (stereo not drawn)
**Result** 20.8

**Query** Please look up its Percent Effect: CC(C)N1CCn2c(nc3cc(C(N)=O)ccc32)C1
**Result** 2.55

**Query** Please look up its Percent Effect: COc1c(CNCc2cccc(CN(C)C)c2)c(C)nn1C
**Result** 13.9

**Query** Please look up its Percent Effect: O=C(Cc1csc(-c2nnc[nH]2)n1)N1CCCC1Cn1cccn1 (stereo not drawn)
**Result** -1.78

**Query** Please look up its Percent Effect: Cn1c(CC2CCS(=O)(=O)C2)nnc1SCCOc1ccccc1F (stereo not drawn)
**Result** -9.3

**Query** Please look up its Percent Effect: CCc1nc(CC(=O)Nc2cnn(CC3CCCO3)c2)cs1 (stereo not drawn)
**Result** 0.276

**Query** Please look up its Percent Effect: O=C(CN1CC(n2cccn2)C1)NCCCc1ccccc1
**Result** -9.65

**Query** Please look up its Percent Effect: CCOC(=O)N1CCN(C(=O)c2sc(-c3ccccc3F)nc2C)CC1
**Result** -3.93

**Query** Please look up its Percent Effect: c1ccc(CNC2CCc3ncnn3C2)nc1 (stereo not drawn)
**Result** 30.1

**Query** Please look up its Percent Effect: CCn1ccnc1CN1CCCN(C(=O)Cn2nc(C)cc2C)CC1
**Result** -12.9

**Query** Please look up its Percent Effect: CCn1nc(C)c2nc(C(C)C)nc(NCCOC)c21
**Result** 19.2

**Query** Please look up its Percent Effect: CC1CN(CC2CCCCC2)CCN1c1ccc2nncn2n1 (stereo not drawn)
**Result** 58.1

**Query** Please look up its Percent Effect: CC(C)c1ncncc1C(=O)NCCN1CCCS1(=O)=O
**Result** 1.77

**Query** Please look up its Percent Effect: O=C(C1CCC1)N1CCn2c(COc3ncccn3)nnc2C1
**Result** 6.38

**Query** Please look up its Percent Effect: Cc1ncc2c(n1)CN(Cc1nnc(-c3occc3C)o1)CC2
**Result** -0.684

**Query** Please look up its Percent Effect: O=C(NCCNc1ncccn1)C1CC(=O)N(CC(F)(F)F)C1 (stereo not drawn)
**Result** 16.5

**Query** Please look up its Percent Effect: Cn1nccc1C1CCN(CC(O)c2cccc(F)c2)CC1 (stereo not drawn)
**Result** 15.3

**Query** Please look up its Percent Effect: Cc1noc(C2CCN(Cc3cc(=O)n(C)c(=O)n3C)CC2)n1
**Result** 15.2

**Query** Please look up its Percent Effect: Cc1cc(CN(C)C(=O)c2ccc(F)cc2Br)no1
**Result** 28.1

**Query** Please look up its Percent Effect: Cc1ccc(Cl)cc1N1CCC(CNC(=O)CCn2ccnc2)C1 (stereo not drawn)
**Result** 9.72

**Query** Please look up its Percent Effect: CC[C@H](C)[C@H](NC(=O)Cc1csc(-c2cccc(Cl)c2)n1)C(=O)O
**Result** -8.02

**Query** Please look up its Percent Effect: COC(=O)C1CCN(C(=O)c2ccc(NS(C)(=O)=O)c(C)c2)CC1
**Result** -0.596

**Query** Please look up its Percent Effect: Cc1ccc(C(=O)NC(CN2CCCC2=O)c2ccccc2)c(=O)[nH]1 (stereo not drawn)
**Result** 2.33

**Query** Please look up its Percent Effect: O=C(NCCN1CCOCC1)NCC(O)c1cccc(F)c1 (stereo not drawn)
**Result** 10.8

**Query** Please look up its Percent Effect: CCOc1cc(C(=O)N2CCCC(n3cncn3)C2)ccc1C (stereo not drawn)
**Result** 4.36

Measured values drawn from ChEMBL document CHEMBL3988442 for this set.
